Data credit: patent US20240209001A1

assay.target: JAK 1 (Homo sapiens (Human))
protocol.details: Biochemical potency on JAK1, TR-FRET LANCE Ultra kinase assay (compounds 1-92)
measurement.parameters: ATP at Km, read-out: JAK1 inhibitory activity (pIC50 class) (converted)
outcome.measure: IC50

Worked cases, answers included:
COc1cc(NS(C)(=O)=O)ccc1-n1nc(C(=O)NCCN2CCOCC2)c2cnc(-c3cnn4cccnc34)cc21 [Example 45]	≤ 5.01 nM
COc1cc(NS(C)(=O)=O)cnc1-n1nc(C)c2cnc(-c3cnn4cccnc34)cc21 [Example 11]	≤ 5.01 nM
CNS(=O)(=O)c1ccc(-n2nc(NCCN3CCOCC3)c3cnc(-c4cnn5cccnc45)cc32)c(OC)c1 [Example 50]	≤ 5.01 nM

Exercise: Looking for the measured IC50 of COc1cc(NS(C)(=O)=O)ccc1-n1nc(NC(=O)CN2CCN(C)CC2)c2cnc(-c3cnn4cccnc34)cc21 [Example 81] , can you help?
Key: ≤ 5.01 nM

Exercise: Looking for the measured IC50 of COc1cc(CNS(C)(=O)=O)c(Cl)cc1-n1nc(NCCN2CCOCC2)c2cnc(-c3cnn4cccnc34)cc21 [Example 58] , can you help?
Key: ≤ 5.01 nM

Exercise: Looking for the measured IC50 of CNc1nn(-c2cc(Cl)c(CNS(C)(=O)=O)cc2OC)c2cc(-c3cnn4cccnc34)ncc12 [Example 57] , can you help?
Key: ≤ 5.01 nM

====

assay.target: JAK 1 (Homo sapiens (Human), UniProt P23458)
Sequence (P23458 whole entry): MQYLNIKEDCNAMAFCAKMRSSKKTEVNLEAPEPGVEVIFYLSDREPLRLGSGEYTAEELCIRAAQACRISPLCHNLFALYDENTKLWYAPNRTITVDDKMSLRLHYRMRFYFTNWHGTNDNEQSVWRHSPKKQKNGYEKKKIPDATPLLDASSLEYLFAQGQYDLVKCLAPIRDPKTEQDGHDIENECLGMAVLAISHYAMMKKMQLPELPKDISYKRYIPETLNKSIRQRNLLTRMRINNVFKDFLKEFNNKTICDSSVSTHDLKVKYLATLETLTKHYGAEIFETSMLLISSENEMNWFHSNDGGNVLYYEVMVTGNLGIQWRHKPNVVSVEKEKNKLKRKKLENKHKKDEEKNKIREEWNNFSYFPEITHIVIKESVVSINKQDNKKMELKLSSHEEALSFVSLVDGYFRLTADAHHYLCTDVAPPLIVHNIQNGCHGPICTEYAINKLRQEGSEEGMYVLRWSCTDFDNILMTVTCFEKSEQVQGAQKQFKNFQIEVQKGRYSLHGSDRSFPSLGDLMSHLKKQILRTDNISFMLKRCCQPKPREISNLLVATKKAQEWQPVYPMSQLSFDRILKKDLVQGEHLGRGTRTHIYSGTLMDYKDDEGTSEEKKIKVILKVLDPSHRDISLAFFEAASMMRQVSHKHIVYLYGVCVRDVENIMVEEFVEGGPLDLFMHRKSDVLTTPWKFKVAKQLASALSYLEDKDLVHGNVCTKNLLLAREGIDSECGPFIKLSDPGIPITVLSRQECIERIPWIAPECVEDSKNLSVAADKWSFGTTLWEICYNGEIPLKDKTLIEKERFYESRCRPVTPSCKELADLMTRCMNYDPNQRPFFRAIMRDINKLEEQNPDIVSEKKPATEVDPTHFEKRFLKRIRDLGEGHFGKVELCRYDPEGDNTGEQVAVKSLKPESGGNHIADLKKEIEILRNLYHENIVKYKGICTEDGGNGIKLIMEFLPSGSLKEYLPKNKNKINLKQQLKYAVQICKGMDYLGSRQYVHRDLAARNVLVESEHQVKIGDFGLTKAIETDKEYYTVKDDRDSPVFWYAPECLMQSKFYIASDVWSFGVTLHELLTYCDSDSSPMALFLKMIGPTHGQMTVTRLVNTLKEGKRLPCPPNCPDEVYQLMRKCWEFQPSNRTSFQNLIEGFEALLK
protocol.details: Biochemical potency on JAK1, TR-FRET LANCE Ultra kinase assay (compounds 1-92)
measurement.parameters: ATP at Km, read-out: JAK1 inhibitory activity (pIC50 class) (converted)
The reader will find reported IC50 values listed item by item below.

CNc1cc(OC)c(-n2nc(C)c3cnc(-c4cnn5cccnc45)cc32)cn1	5.01 to 50.1 nM
COc1cc(NS(=O)(=O)C2CC2)ccc1-n1nc(NCCN2CCOCC2)c2cnc(-c3cnn4cccnc34)cc21	≤ 5.01 nM
COc1cc(NS(=O)(=O)C2CCOCC2)ccc1-n1nc(C)c2cnc(-c3cnn4cccnc34)cc21	5.01 to 50.1 nM
COc1cc(NS(C)(=O)=O)ccc1-n1nc(NCCN(C)CCF)c2cnc(-c3cnn4cccnc34)cc21	≤ 5.01 nM
CNS(=O)(=O)c1ccc(-n2nc(C)c3cnc(-c4cnn5cccnc45)cc32)c(OC)c1	5.01 to 50.1 nM

Query compound follows.
Exercise: Looking for the measured IC50 of COc1cc(NS(C)(=O)=O)c(F)cc1-n1nc(C)c2cnc(-c3cnn4cccnc34)cc21 , can you help?
Key: 5.01 to 50.1 nM

====

assay.target: JAK 1 (Homo sapiens (Human))
protocol.details: Biochemical potency on JAK1, TR-FRET LANCE Ultra kinase assay (compounds 1-92)
measurement.parameters: ATP at Km, read-out: JAK1 inhibitory activity (pIC50 class) (converted)
The reader will find reported IC50 values listed item by item below.

Exercise: Looking for the measured IC50 of COc1cc(NC(=O)c2ccccc2)ccc1-n1nc(C)c2cnc(-c3cnn4cccnc34)cc21 , can you help?
Key: 5.01 to 50.1 nM

Exercise: Looking for the measured IC50 of COc1cc(CNS(C)(=O)=O)ccc1-n1nc(NCCN(C)C)c2cnc(-c3cnn4cccnc34)cc21 , can you help?
Key: ≤ 5.01 nM

Exercise: Looking for the measured IC50 of COc1cc(CN)ccc1-n1nc(C)c2cnc(-c3cnn4cccnc34)cc21 , can you help?
Key: > 50.1 nM

Exercise: Looking for the measured IC50 of COc1cc(NS(C)(=O)=O)ccc1-n1nc(NCCN(C)C)c2cnc(-c3cnc4cccnn34)cc21 , can you help?
Key: ≤ 5.01 nM

====

The reader will find reported IC50 values listed item by item below.
assay.target: JAK 2 (Homo sapiens (Human), UniProt O60674)
Sequence (O60674 whole entry): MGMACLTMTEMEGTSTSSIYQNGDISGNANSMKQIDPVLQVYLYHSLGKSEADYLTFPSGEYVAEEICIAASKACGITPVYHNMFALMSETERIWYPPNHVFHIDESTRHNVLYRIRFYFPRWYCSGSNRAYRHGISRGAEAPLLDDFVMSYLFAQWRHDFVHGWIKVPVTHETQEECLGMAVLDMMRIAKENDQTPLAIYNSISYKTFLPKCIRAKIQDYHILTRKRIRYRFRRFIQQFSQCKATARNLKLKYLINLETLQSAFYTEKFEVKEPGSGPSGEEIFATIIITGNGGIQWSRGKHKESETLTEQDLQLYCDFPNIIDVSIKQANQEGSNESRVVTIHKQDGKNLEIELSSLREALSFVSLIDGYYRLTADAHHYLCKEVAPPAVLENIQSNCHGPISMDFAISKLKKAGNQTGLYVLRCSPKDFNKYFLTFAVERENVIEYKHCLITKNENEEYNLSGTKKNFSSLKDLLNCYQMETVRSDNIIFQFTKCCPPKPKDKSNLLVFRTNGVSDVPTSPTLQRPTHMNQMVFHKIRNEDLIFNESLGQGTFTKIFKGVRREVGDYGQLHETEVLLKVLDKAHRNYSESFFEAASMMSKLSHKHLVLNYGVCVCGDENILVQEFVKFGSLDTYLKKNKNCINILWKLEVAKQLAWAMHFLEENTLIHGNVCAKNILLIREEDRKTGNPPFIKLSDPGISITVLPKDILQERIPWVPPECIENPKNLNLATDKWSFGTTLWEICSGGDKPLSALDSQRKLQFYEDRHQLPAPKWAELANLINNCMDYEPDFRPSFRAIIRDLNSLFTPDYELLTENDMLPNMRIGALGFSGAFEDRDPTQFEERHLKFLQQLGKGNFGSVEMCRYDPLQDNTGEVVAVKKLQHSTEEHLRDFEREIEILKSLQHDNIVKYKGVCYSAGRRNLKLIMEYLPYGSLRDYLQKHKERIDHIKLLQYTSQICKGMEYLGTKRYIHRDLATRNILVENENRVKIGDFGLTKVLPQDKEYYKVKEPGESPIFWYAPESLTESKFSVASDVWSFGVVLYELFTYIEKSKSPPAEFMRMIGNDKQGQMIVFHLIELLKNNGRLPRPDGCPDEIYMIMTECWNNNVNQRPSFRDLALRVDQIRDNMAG
protocol.details: Biochemical potency on JAK2, TR-FRET LANCE Ultra kinase assay (compounds 1-92)
measurement.parameters: ATP at Km, read-out: JAK2 inhibitory activity (pIC50 class) (converted)

Worked cases, answers included:
COc1cc(NS(=O)(=O)C2CC2)cnc1-n1nc(NCCN(C)C)c2cnc(-c3cnn4cccnc34)cc21	5.01 to 50.1 nM
O=S(=O)(Nc1ccc(-n2nc(NCCN3CCOCC3)c3cnc(-c4cnn5cccnc45)cc32)c(OC(F)F)c1)C1CC1	5.01 to 50.1 nM
COc1cc(CN)ccc1-n1nc(C)c2cnc(-c3cnn4cccnc34)cc21	> 50.1 nM
CNc1nn(-c2ccc(NS(=O)(=O)C3CC3)cc2OC)c2cc(-c3cnn4cccnc34)ncc12	≤ 5.01 nM
CNc1cc(OC)c(-n2nc(C)c3cnc(-c4cnn5cccnc45)cc32)cn1	5.01 to 50.1 nM

Exercise: Looking for the measured IC50 of CNCC(=O)Nc1nn(-c2ccc(NS(C)(=O)=O)cc2OC)c2cc(-c3cnn4cccnc34)ncc12 , can you help?
Key: ≤ 5.01 nM

Exercise: Looking for the measured IC50 of COc1cc(NS(=O)(=O)c2cnn(C)c2)ccc1-n1nc(C)c2cnc(-c3cnn4cccnc34)cc21 , can you help?
Key: ≤ 5.01 nM

Exercise: Looking for the measured IC50 of CNc1nn(-c2ccc(CNS(C)(=O)=O)cc2OC)c2cc(-c3cnn4cccnc34)ncc12 , can you help?
Key: ≤ 5.01 nM

Exercise: Looking for the measured IC50 of COc1cc(NS(C)(=O)=O)ccc1-n1nc(NC(=O)C2CCN(C)CC2)c2cnc(-c3cnn4cccnc34)cc21 , can you help?
Key: ≤ 5.01 nM

Exercise: Looking for the measured IC50 of CNc1nn(-c2ccc(NS(C)(=O)=O)cc2OC)c2cc(-c3cnn4cccnc34)ncc12 , can you help?
Key: ≤ 5.01 nM

====

assay.target: JAK 2 (Homo sapiens (Human), UniProt O60674)
protocol.details: Biochemical potency on JAK2, TR-FRET LANCE Ultra kinase assay (compounds 1-92)
measurement.parameters: ATP at Km, read-out: JAK2 inhibitory activity (pIC50 class) (converted)
The reader will find reported IC50 values listed item by item below.

Worked cases, answers included:
CCCS(=O)(=O)Nc1ccc(-n2nc(NC)c3cnc(Nc4ncc[nH]c4=O)cc32)c(OC)c1 [Example 91]	≤ 5.01 nM
COc1cc(NS(=O)(=O)C2CCOCC2)ccc1-n1nc(C)c2cnc(-c3cnn4cccnc34)cc21 [Example 3]	≤ 5.01 nM
COc1cc(CN(C)S(C)(=O)=O)ccc1-n1nc(C)c2cnc(-c3cnn4cccnc34)cc21 [Example 65]	≤ 5.01 nM
COc1cc(CNC(=O)Nc2ccccc2)ccc1-n1nc(C)c2cnc(-c3cnn4cccnc34)cc21 [Example 72]	5.01 to 50.1 nM
COc1cc(NS(C)(=O)=O)ccc1-n1nc(C(=O)NCCCN(C)C)c2cnc(-c3cnn4cccnc34)cc21 [Example 43]	≤ 5.01 nM

Exercise: Looking for the measured IC50 of CNC(=O)Nc1ccc(-n2nc(C)c3cnc(-c4cnn5cccnc45)cc32)c(OC)c1 [Example 18] , can you help?
Key: 5.01 to 50.1 nM

Exercise: Looking for the measured IC50 of COc1cc(NS(=O)(=O)c2cnn(C)c2)ccc1-n1nc(C)c2cnc(Nc3ncc[nH]c3=O)cc21 [Example 86] , can you help?
Key: ≤ 5.01 nM

Exercise: Looking for the measured IC50 of COc1cc(NS(C)(=O)=O)ccc1-n1nc(NC(=O)C2CCN(C)C2)c2cnc(-c3cnn4cccnc34)cc21 (racemic) [Example 42] , can you help?
Key: 5.01 to 50.1 nM

Exercise: Looking for the measured IC50 of COc1cc(NS(C)(=O)=O)ccc1-n1nc(NCCN2CCOCC2)c2cnc(-c3cnc4cccnn34)cc21 [Example 76] , can you help?
Key: ≤ 5.01 nM

Exercise: Looking for the measured IC50 of COc1cc(NS(C)(=O)=O)ccc1-n1nc(NCCN2CCCCC2)c2cnc(-c3cnn4cccnc34)cc21 [Example 37] , can you help?
Key: ≤ 5.01 nM

Exercise: Looking for the measured IC50 of COc1cc(CNS(C)(=O)=O)c(Cl)cc1-n1nc(NCCN2CCOCC2)c2cnc(-c3cnn4cccnc34)cc21 [Example 58] , can you help?
Key: 5.01 to 50.1 nM

Exercise: Looking for the measured IC50 of COc1cc(NS(=O)(=O)C2COC2)ccc1-n1nc(C)c2cnc(-c3cnn4cccnc34)cc21 [Example 8] , can you help?
Key: ≤ 5.01 nM

====

assay.target: JAK 3 (Homo sapiens (Human), UniProt P52333)
Sequence (P52333 whole entry): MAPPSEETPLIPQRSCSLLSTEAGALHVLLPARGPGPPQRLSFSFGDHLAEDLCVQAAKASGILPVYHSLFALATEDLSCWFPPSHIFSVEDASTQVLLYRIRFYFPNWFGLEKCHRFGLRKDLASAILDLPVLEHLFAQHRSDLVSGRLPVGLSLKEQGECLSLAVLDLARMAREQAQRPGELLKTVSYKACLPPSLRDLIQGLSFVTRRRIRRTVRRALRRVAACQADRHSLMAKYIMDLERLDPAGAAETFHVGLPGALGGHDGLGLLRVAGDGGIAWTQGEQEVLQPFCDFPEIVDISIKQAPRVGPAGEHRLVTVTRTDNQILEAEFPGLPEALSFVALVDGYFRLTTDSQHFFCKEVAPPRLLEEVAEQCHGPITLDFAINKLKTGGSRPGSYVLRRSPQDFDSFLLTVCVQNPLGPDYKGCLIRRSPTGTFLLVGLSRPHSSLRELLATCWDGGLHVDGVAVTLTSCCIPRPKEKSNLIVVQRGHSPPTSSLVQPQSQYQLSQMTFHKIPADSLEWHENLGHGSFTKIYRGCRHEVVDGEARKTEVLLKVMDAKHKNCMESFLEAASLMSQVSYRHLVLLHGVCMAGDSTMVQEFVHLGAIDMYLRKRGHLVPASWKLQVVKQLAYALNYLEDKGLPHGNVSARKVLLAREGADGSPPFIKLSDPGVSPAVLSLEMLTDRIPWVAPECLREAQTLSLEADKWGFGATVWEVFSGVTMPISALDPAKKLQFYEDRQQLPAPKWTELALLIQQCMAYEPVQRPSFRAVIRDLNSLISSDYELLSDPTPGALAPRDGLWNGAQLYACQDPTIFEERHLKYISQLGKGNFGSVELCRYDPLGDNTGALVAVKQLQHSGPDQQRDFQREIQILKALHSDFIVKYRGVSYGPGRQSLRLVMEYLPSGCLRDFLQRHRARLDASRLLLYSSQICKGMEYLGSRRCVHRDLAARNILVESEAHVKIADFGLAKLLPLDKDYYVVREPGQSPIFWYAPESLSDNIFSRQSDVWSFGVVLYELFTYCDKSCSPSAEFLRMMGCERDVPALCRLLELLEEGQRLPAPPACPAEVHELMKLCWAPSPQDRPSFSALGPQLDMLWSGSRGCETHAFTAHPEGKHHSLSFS
protocol.details: Biochemical potency on JAK3, TR-FRET LANCE Ultra kinase assay (compounds 1-92)
measurement.parameters: ATP at Km, read-out: JAK3 inhibitory activity (pIC50 class) (converted)
outcome.measure: IC50

Worked cases, answers included:
COC(=O)NCc1ccc(-n2nc(C)c3cnc(-c4cnn5cccnc45)cc32)c(OC)c1 [Example 69]	5.01 to 50.1 nM
CNc1nn(-c2ccc(NS(=O)(=O)C3CC3)cc2OC)c2cc(-c3cnn4cccnc34)ncc12 [Example 35]	5.01 to 50.1 nM
COc1cc(CNS(C)(=O)=O)c(Cl)cc1-n1nc(NCCN2CCOCC2)c2cnc(-c3cnn4cccnc34)cc21 [Example 58]	5.01 to 50.1 nM

Exercise: Form field - read-out: IC50; system: JAK 3 (Homo sapiens (Human), UniProt P52333); submitted item: COc1cc(NS(=O)(=O)CC2CC2)ccc1-n1nc(C)c2cnc(-c3cnn4cccnc34)cc21 [Example 5]
Key: ≤ 5.01 nM

Exercise: Form field - read-out: IC50; system: JAK 3 (Homo sapiens (Human), UniProt P52333); submitted item: COc1cc(NS(C)(=O)=O)ccc1-n1nc(NCCN(C)C)c2cnc(-c3cnn4cccnc34)cc21 [Example 31]
Key: ≤ 5.01 nM

Exercise: Form field - read-out: IC50; system: JAK 3 (Homo sapiens (Human), UniProt P52333); submitted item: Cc1nn(-c2ccc(CNS(C)(=O)=O)cc2OC(F)F)c2cc(-c3cnn4cccnc34)ncc12 [Example 61]
Key: ≤ 5.01 nM

Exercise: Form field - read-out: IC50; system: JAK 3 (Homo sapiens (Human), UniProt P52333); submitted item: COc1cc(NS(=O)(=O)C2CCOCC2)ccc1-n1nc(C)c2cnc(-c3cnn4cccnc34)cc21 [Example 3]
Key: 5.01 to 50.1 nM

Exercise: Form field - read-out: IC50; system: JAK 3 (Homo sapiens (Human), UniProt P52333); submitted item: COc1cc(CNS(C)(=O)=O)ccc1-n1nc(NCCN2CCCCC2)c2cnc(-c3cnn4cccnc34)cc21 [Example 54]
Key: 5.01 to 50.1 nM

Exercise: Form field - read-out: IC50; system: JAK 3 (Homo sapiens (Human), UniProt P52333); submitted item: COc1cc(NC(=O)c2ccccc2)cnc1-n1nc(C)c2cnc(-c3cnn4cccnc34)cc21 [Example 48]
Key: ≤ 5.01 nM

Exercise: Form field - read-out: IC50; system: JAK 3 (Homo sapiens (Human), UniProt P52333); submitted item: COc1cc(NS(=O)(=O)C2CC2)ccc1-n1nc(CC#N)c2cnc(-c3cnn4cccnc34)cc21 [Example 84]
Key: 5.01 to 50.1 nM
